- Test system: Fibroblast
- ASSAY_COMMENT: Multiplex assay against human fibroblast
- Assay type: toxicity, cell-based
- CONDITION_LABEL: 24 h, 1 µM, compound concentration 1 uM, replicate 1
Recorded Population Membrane Permeable-Phenotype (%) for the following molecules
MEASURED_PARAMETER: Population Membrane Permeable-Phenotype (%)

MOLECULE	RECORDED_RESULT
OCCCNc1cc(-c2ccnc(Nc3cccc(Cl)c3)n2)ccn1	1
CCn1c(-c2nc3cc(C(=O)N4CCCC(N)C4)ccc3n2C)cc2ccccc21.Cl (centres undefined)	0
CC(C)C[C@H](CO)Nc1nc(S[C@@H](C)c2ccccc2)nc2nc(N)sc12 [AZD-8797]	1
COCCn1c(C)c(C)s/c1=N\C(=O)C1C(C)(C)C1(C)C	1
Cc1cc(O)c(-c2ccc([C@@H](C)CN(C)C)cc2)c2c1[nH]c(=O)c1sccc12	0
Cc1ccc(OCC(O)C(C)NC(C)C)c2c1CCC2.Cl (centres undefined)	4
C[C@@H]1CC(=O)Nc2cccc(-c3ccc4c(c3)c(-c3cnn(C)c3)nn4C)c2N1	2
COc1ccc2c(c1OCc1ccccc1)C[C@@H](C(=O)O)N(C(=O)C(c1ccccc1)c1ccccc1)C2 [OLODANRIGAN]	0
N[C@](CC1c2ccccc2Oc2ccccc21)(C(=O)O)[C@H]1C[C@@H]1C(=O)O	2
